Tested on: phospho-ERK in melanoma derived WM-266-4 cells
Assay: Mechanistic cellular assay for Raf kinase activity (phospho-ERK, Bio-Plex)
Format: cell-based
Settings: Homo sapiens, treated 1-2 hr at 37° C., serum free medium, read-out: pERK EC50
Description: (2) Mechanistic Cellular Assay for Raf Kinase Activity The following method was utilized for quantifying the amount of phospho-ERK in melanoma derived WM-266-4 cells (one allele each of wild type BRaf and mutant BRaf (V600D) as an indicator of Raf kinase activity in cells treated with various kinase inhibitors. […] (2) Prepared phospho-ERK1,2 Bioplex beads by diluting 1:50 with Bioplex Wash Buffer (mixing 49 μL Wash Buffer with 1 μL of phospho-ERK1,2 Bioplex beads for each sample to be analyzed). […]
ASSAY_READOUT: EC50

These solved cases illustrate the format of a correct answer.
CCN(CC)c1cnc2cnc(C(=O)NC(C)c3ncc(Nc4ccc(C(F)(F)F)cc4)s3)cn12 (stereo not shown)
100 to 1000 nM
C[C@@H](NC(=O)c1cnn2cc(-c3cccnc3)ccc12)c1cc(C(=O)Nc2cccc(OC(F)(F)F)c2)on1
≤ 100 nM
COC(=O)c1cc(Nc2ncc(C(C)NC(=O)c3cc4c(cn3)ncn4C)s2)cc(C(C)(C)C)c1 (stereo not shown)
100 to 1000 nM
CC(NC(=O)c1cnn2cc(-c3cc(F)nc(F)c3)ccc12)c1nc(C(=O)Nc2cc(C(F)(F)F)c(Cl)cn2)cs1 (stereo not shown)
100 to 1000 nM
C[C@@H](NC(=O)c1cnn2ccccc12)c1cc(C(=O)Nc2nc3cc(Cl)ccc3o2)on1
1000 to 10000 nM
CC(NC(=O)c1cc2c(cn1)nc(N)n2C)c1cnc(Nc2ccc(C(F)(F)F)cc2)s1 (stereo not shown)
≤ 100 nM

Alright, here's another compound for you.
Exercise: What value of EC50 has been reported for the following compound? CCOc1cc(C(F)(F)F)ccc1Nc1ncc(C(C)NC(=O)c2cc3c(cn2)ncn3C)s1 (stereo not shown)
Key: 100 to 1000 nM
